- Experiment: Solubility in toluene (Compound Properties, Table 1)
- Format: physicochemical
- Condition Label: organic solvent or mixture
Recorded solubility for the following compounds
Expressed in µg/mL, but write only the number.

{"columns": ["Compound", "Unit Info", "solubility"],
 "data": [
  ["c1ccc(-c2cc(-c3ccccc3)c3ccc4c(-c5ccccc5)cc(-c5ccc6ccccc6c5)nc4c3n2)cc1 [Compound 18]", "µg/mL", 2300],
  ["c1ccc(-c2cccc(-c3cc(-c4ccccc4)c4ccc5c(-c6ccccc6)cc(-c6cccc(-c7ccccc7)c6)nc5c4n3)c2)cc1 [Compound 16]", "µg/mL", 800],
  ["c1ccc(-c2ccc3c(c2)c2cc(-c4ccccc4)ccc2n3-c2cccc(-c3cc(-c4ccccc4)c4ccc5c(-c6ccccc6)cc(-c6cccc(-n7c8ccc(-c9ccccc9)cc8c8cc(-c9ccccc9)ccc87)c6)nc5c4n3)c2)cc1 [Compound 12]", "µg/mL", 22800],
  ["c1ccc(-c2cc(-c3ccccc3)c3ccc4c(-c5ccccc5)cc(-c5cccc6ccccc56)nc4c3n2)cc1 [Compound 17]", "µg/mL", 4200],
  ["c1ccc(-c2cc(-c3ccc(N(c4ccccc4)c4ccccc4)cc3)c3ccc4c(-c5ccc(N(c6ccccc6)c6ccccc6)cc5)cc(-c5ccccc5)nc4c3n2)cc1 [Compound 2]", "µg/mL", 7600]
]}

Would you kindly look at the next entry?
*Q* Give solubility for c1ccc(-c2cc(-c3ccc(N(c4ccccc4)c4ccccc4)cc3)nc3c2ccc2c(-c4ccccc4)cc(-c4ccc(N(c5ccccc5)c5ccccc5)cc4)nc23)cc1 [Compound 4]
*A* 31300

Recorded values, source patent US8309731B2.
